Just for reference, patent US20060240424A1 is where these values come from.

- System tested: P2Y15 GPCR (Homo sapiens, UniProt Q96P68)
- Method notes: Ca2+ flux assay (ligand screening) in stably transfected P2Y15 GPCR-expressing HEK293 cells
- Assay setup: FIG. 2A, read-out: calcium response EC50
Measured quantity: pEC50
Scale: pEC50 equals -log10([C]), with [C] in mol/L.

Input: Lab note: need pEC50 with P2Y15 GPCR (Homo sapiens, UniProt Q96P68) for entry Nc1ncnc2c1ncn2[C@@H]1O[C@H](COP(=O)(O)O)[C@@H](O)[C@H]1O [AMP, Adenosine 5′-monophosphate] , please look it up.
Output: 6.04
